Item-by-item account of Plant response rating, Ducksalad
# Test system: duck salad (Heteranthera limosa)
# protocolDetails: Test B flooded paddy test
# Type: in vivo
# conditionParameters: Flood, 1000 g ai/ha; scale 0 to 100
Lab note: record the figure alone, no unit after it.

CCCCOC(=O)c1nc(C2CC2)nc(N)c1Br	90
CC(C)COC(=O)c1nc(C2CC2)nc(N)c1Br	90

Turning now to a further compound:
Query block: I have this compound here, COC(=O)c1nc(C2CC2C)nc(N)c1Br (stereo not drawn) , and I need its recorded Plant response rating, Ducksalad.
Result block: 30

---

# Tested on: cocklebur (Xanthium strumarium)
# protocolDetails: Test C pre/postemergence
# Type: in vivo
# conditionParameters: Xanthium strumarium, post-emergence, Postemergence, 62 g ai/ha; scale 0 to 100 (0 no effect, 100 complete control); read-out: Cocklebur plant response rating
Item-by-item account of pest or weed control at 62 g/ha
Respond with the figure and its unit, in that order.

Query block: Observed pest or weed control at 62 g/ha on cocklebur (Xanthium strumarium) for "COC(=O)c1nc(C2CC2)nc(N)c1Br" , please.
Result block: 75%

Query block: Quick one: "COC(=O)c1nc(C2CC2)nc(N)c1F"
Result block: 90%
